// provenance: patent US11155523B2

experiment: Comparative pharmacokinetics study in rats; assay type: in vivo, SD male rats; settings: male, Sprague-Dawley (SD), plasma; rat, intravenous injection 2 mg/kg
Mark YES for reported half-life of 400 min or greater; mark NO for anything smaller.

Some solved entries appear below for comparison.
| molecule | label class |
| --- | --- |
| CCCCOCCOc1ccc(-c2ccc(OC)c(/C=C/C(=O)Nc3ccc([S@@+]([O-])Cc4cncn4CCC)cc3)c2)cc1 [WX017] | NO |
| CCCCOCCOc1ccc(-c2ccc(OC)c(/C=C/C(=O)Nc3ccc([S@+]([O-])Cc4c(C)ncn4CC)cc3)c2)cc1 [WX079] | YES |
| CCCCOCCOc1ccc(-c2ccc(OCC)c(/C=C/C(=O)Nc3ccc([S@+]([O-])Cc4c(C)ncn4CC)cc3)c2)cc1 [WX047] | NO |

Turning now to a further molecule:
## Task Quick check, half-life >= 400 min? CCCCOCCOc1ccc(-c2ccc3c(c2)/C=C(/C(=O)Nc2ccc([S@@+]([O-])Cc4cncn4CCC)cc2)CCCN3CC(C)C)cc1 [(Cenicriviroc), Cenicriviroc, reference compound]
## Result NO
